- Tested on: A species of Bacterioides
- protocolNotes: Effect on the intestinal bacterial colonies: number of a species of Bacterioides in feces
- Format: in vivo, Bacteroides (feces of female ICR mice)
- measurementConditions: oral, 500 mg/kg/day for 2 days; feces one day after administration; before administration 8.1
I'd appreciate it if you could supply Log10 value of the number of bacterial cells/g of feces, a species of Bacterioides values for the items below.

Query: Look up Log10 value of the number of bacterial cells/g of feces, a species of Bacterioides: COC1(NC(=O)CSCC#N)C(=O)N2C(C(=O)Nc3ccc(C)cc3)=C(CSc3nnnn3C)CSC21 (stereo not shown)
Reply: 8.0 Log10 cells/g of feces

Query: Param item: COC1(NC(=O)CSCC#N)C(=O)N2C(C(=O)Nc3ccc(C(=O)O)cc3)=C(CSc3nnnn3C)CSC21 (stereo not shown)
Reply: 8.1 Log10 cells/g of feces

Query: Can you check `COC(=O)Cc1ccc(NC(=O)C2=C(CSc3nnnn3C)CS[C@H]3N2C(=O)[C@]3(NC(=O)CSCC#N)OC)cc1` next?
Reply: 8.0 Log10 cells/g of feces

Query: Next entry: COC(=O)CNC(=O)c1ccc(NC(=O)C2=C(CSc3nnnn3C)CSC3N2C(=O)C3(NC(=O)CSCC#N)OC)cc1 (stereo not shown)
Reply: 8.3 Log10 cells/g of feces

* * *

- Tested on: A species of Bacterioides
- protocolNotes: Effect on the intestinal bacterial colonies: number of a species of Bacterioides in feces
- Type: in vivo, Bacteroides (feces of female ICR mice)
- measurementConditions: oral, 500 mg/kg/day for 2 days; feces one day after administration; before administration 8.1
Would you mind telling me the reported Log10 value of the number of bacterial cells/g of feces, a species of Bacterioides of each entry?

Query: What value of Log10 value of the number of bacterial cells/g of feces, a species of Bacterioides has been reported for the following compound? CO[C@@]1(NC(=O)CSCC#N)C(=O)N2C(C(=O)O)=C(CSc3nnnn3C)CS[C@@H]21 [CEFMETAZOLE, reference compound]
Reply: 4.6 Log10 cells/g of feces

Query: Now consider COC(=O)c1ccc(NC(=O)C2=C(CSc3nnnn3C)CSC3N2C(=O)C3(NC(=O)CSCC#N)OC)cc1 (stereo not drawn) and answer again.
Reply: 8.0 Log10 cells/g of feces

Query: Next entry: `CO[C@@]1(NC(=O)CSCC#N)C(=O)N2C(C(=O)Nc3ccc(O)cc3)=C(CSc3nnnn3C)CS[C@@H]21`
Reply: 7.9 Log10 cells/g of feces
